Target: Induced myeloid leukemia cell differentiation protein Mcl-1 (Homo sapiens) (UniProt Q07820)
Sequence (Q07820 whole entry, looked up): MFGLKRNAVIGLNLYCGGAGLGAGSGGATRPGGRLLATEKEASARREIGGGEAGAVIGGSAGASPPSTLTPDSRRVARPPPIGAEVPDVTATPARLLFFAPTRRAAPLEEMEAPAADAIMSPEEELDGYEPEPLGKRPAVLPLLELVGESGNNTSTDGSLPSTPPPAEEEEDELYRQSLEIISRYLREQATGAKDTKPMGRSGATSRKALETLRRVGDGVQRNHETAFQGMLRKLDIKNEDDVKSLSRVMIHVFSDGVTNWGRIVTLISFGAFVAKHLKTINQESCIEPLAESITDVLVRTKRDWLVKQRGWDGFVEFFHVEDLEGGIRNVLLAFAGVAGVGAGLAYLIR
Assay: modulators of Bim peptide binding to Mcl-1, dose response, biochemical, bead-based flow cytometry, multiplexed, human (AID 1329)
Conditions: Bim peptide-Mcl-1 binding, MCF
Calls of active or inactive are those of the source. The rule behind the calls is not given here.
result type: percent span

{"compound": "COc1cccc2c(SCC(=O)N/N=C/c3ccc(O)c(O)c3)cc(C)nc12", "result type": "percent span", "measured value": "inactive"}
{"compound": "Cc1cccn2c(=O)c3cc(C(N)=S)c(=N)n(CCCN4CCOCC4)c3nc12", "result type": "percent span", "measured value": "inactive"}
{"compound": "COC(=O)Cc1ccc(NC(=S)N2CCN(c3cccc(O)c3)CC2)cc1", "result type": "percent span", "measured value": "inactive"}
{"compound": "Cc1ccc(Nc2nc(C)cs2)cc1", "result type": "percent span", "measured value": "inactive"}
{"compound": "Cc1cccc(NC(=S)N2CCn3cccc3C2c2cccnc2)c1 (centres undefined)", "result type": "percent span", "measured value": "inactive"}
{"compound": "COc1ccc(C2C(C#N)=C(C)NC3=C2S(=O)(=O)c2ccccc23)cc1 (centres undefined)", "result type": "percent span", "measured value": "inactive"}
{"compound": "Cc1ccc(SCCC(=O)Nc2ccc(Br)c(C)c2)cc1", "result type": "percent span", "measured value": "inactive"}
{"compound": "CC(=O)Nc1ccc2nc(CN3CCN(CC(C)C)C(CCO)C3)ccc2c1 (centres undefined)", "result type": "percent span", "measured value": "inactive"}
{"compound": "O=[N+]([O-])c1ccc(N/N=C/c2ccc(O)c(O)c2O)c(S(=O)(=O)N2CCOCC2)c1", "result type": "percent span", "measured value": "inactive"}
{"compound": "Cc1ccc(/C=N/N(C)C2=NS(=O)(=O)c3ccccc32)o1", "result type": "percent span", "measured value": "inactive"}
{"compound": "CC(=O)c1ccc(NC(=O)c2ccc3nc(-c4ccco4)c(-c4ccco4)nc3c2)cc1", "result type": "percent span", "measured value": "inactive"}
{"compound": "NC(=O)c1c(NC(=O)C2CCCO2)sc2c1CCCC2 (centres undefined)", "result type": "percent span", "measured value": "inactive"}
{"compound": "Cn1c(N)c(C(=O)COC(=O)c2cc(-c3ccco3)nc3ccccc23)c(=O)n(Cc2ccccc2)c1=O", "result type": "percent span", "measured value": "inactive"}
{"compound": "O=C(c1cc2ccccc2oc1=O)N(c1ccccc1)C1C=CS(=O)(=O)C1 (centres undefined)", "result type": "percent span", "measured value": "inactive"}
{"compound": "Cc1ccc(NC(=O)CC2S/C(=N/N=C/c3c[nH]c4ccccc34)NC2=O)cc1 (centres undefined)", "result type": "percent span", "measured value": "inactive"}
{"compound": "Cn1c(=O)c(C(=O)COC(=O)c2cc(-c3ccco3)nc3ccccc23)c(N)n(Cc2ccccc2)c1=O", "result type": "percent span", "measured value": "inactive"}
{"compound": "O=C(O)CC1S/C(=N/N=C/C=C/c2ccccc2[N+](=O)[O-])NC1=O (centres undefined)", "result type": "percent span", "measured value": "inactive"}
{"compound": "CC(C)CN1C(=O)/C(=C/c2ccco2)NC1=S", "result type": "percent span", "measured value": "inactive"}
{"compound": "CCn1c(SCC(=O)Nc2ccc(C)cc2)nnc1-c1ccc(O)cc1", "result type": "percent span", "measured value": "inactive"}
{"compound": "c1ccc(-c2nc(N3CCCCC3)nc3ccccc23)cc1", "result type": "percent span", "measured value": "inactive"}
{"compound": "CCOC(=O)CSC1=NC(=O)/C(=C\\c2ccc(OC(C)=O)cc2)S1", "result type": "percent span", "measured value": "inactive"}
{"compound": "O=C(Nc1cccc(Cl)c1)Nc1ccnc(-c2cccnc2)n1", "result type": "percent span", "measured value": "inactive"}
{"compound": "O=C(NCCCN1CCN(CCCNC(=O)c2cc([N+](=O)[O-])ccc2Cl)CC1)c1cc([N+](=O)[O-])ccc1Cl", "result type": "percent span", "measured value": "inactive"}
{"compound": "Cc1cc(Cl)ccc1N=c1ssnc1Cl", "result type": "percent span", "measured value": "inactive"}
{"compound": "Cc1ccc(-c2cc(C(=O)Nc3ccccn3)c3ccccc3n2)o1", "result type": "percent span", "measured value": "inactive"}
{"compound": "CCOC(=O)c1snc(-c2ccc(F)cc2)c1N", "result type": "percent span", "measured value": "inactive"}
{"compound": "O=C(OCc1cnc(Cl)s1)c1cccc(Cl)c1Cl", "result type": "percent span", "measured value": "inactive"}
{"compound": "Cc1ccc(N=c2ssnc2Cl)cc1", "result type": "percent span", "measured value": "inactive"}
{"compound": "CCc1cccc(CC)c1NC(=S)N1CCn2cccc2C1c1cccnc1 (centres undefined)", "result type": "percent span", "measured value": "inactive"}
{"compound": "CCN(CC)c1nc(N)nc(N(c2ccccc2)c2ccccc2)n1", "result type": "percent span", "measured value": "inactive"}
{"compound": "COP(=O)(CC(=O)O)c1ccccc1 (centres undefined)", "result type": "percent span", "measured value": "inactive"}
{"compound": "c1ccc(C2=Nc3cccc4cccc(c34)N2)cc1", "result type": "percent span", "measured value": "inactive"}
{"compound": "COc1ccc2nc(C)cc(SCC(=O)N/N=C/c3ccc(O)cc3O)c2c1", "result type": "percent span", "measured value": "inactive"}
{"compound": "CNC(CC(=O)c1ccc([N+](=O)[O-])cc1)C(Cl)(Cl)Cl (centres undefined)", "result type": "percent span", "measured value": "inactive"}
{"compound": "COC(=O)CSc1ncnc2c1sc1nc(-c3ccco3)c3c(c12)CC(C)(C)OC3", "result type": "percent span", "measured value": "inactive"}
{"compound": "COc1ccc(S(=O)(=O)NCCOc2cccc3cccnc23)cc1OC", "result type": "percent span", "measured value": "inactive"}
{"compound": "COc1ccc(NC(=O)c2ccc3c(c2)NC(=O)CS3)cc1S(=O)(=O)Nc1ccc(Br)cc1", "result type": "percent span", "measured value": "inactive"}
{"compound": "CCCCN(C(=O)CCC(=O)Nc1cc(C)on1)C(C(=O)NC(C)(C)C)c1cccc(OC)c1OC (centres undefined)", "result type": "percent span", "measured value": "inactive"}
{"compound": "O=C(COCC(=O)NCc1ccccc1)NCc1ccccc1", "result type": "percent span", "measured value": "inactive"}
{"compound": "O=C(C1=NN[C@@H]2C(=O)N(c3cccc(F)c3)C(=O)[C@H]12)c1ccc2ccccc2n1", "result type": "percent span", "measured value": "inactive"}
{"compound": "CN(C)/C=C/C(=O)c1ccc(C(F)(F)F)cc1F", "result type": "percent span", "measured value": "inactive"}
{"compound": "Cc1ccc(-c2nnc(Cc3ccc(Cl)cc3)o2)cc1", "result type": "percent span", "measured value": "inactive"}
{"compound": "CN(C)c1ccc(C=C2C(=O)NC(=O)NC2=O)cc1[N+](=O)[O-]", "result type": "percent span", "measured value": "inactive"}
{"compound": "FC(F)(F)c1ccc2c(c1)C1C=CCC1C(c1ccncc1)N2 (centres undefined)", "result type": "percent span", "measured value": "inactive"}
